system: CAKI-1 renal; assay: NCI-60 one-dose screen, 48 h (100 = growth as untreated, 0 = no growth, -100 = all killed); details: 10 µM unless noted
Compounds without any hit were thinned out: in the full panel of roughly 83,000, 20% have a hit.
property_name: growth (%)
I only need the number, in %, no unit after it.

INSERT INTO results (compound, recorded_value) VALUES
  ('C=CC1(C)C(O[Si](C)(C)C(C)(C)C)CC2C3OC(=O)NC31c1cccc3c1[C@H](C(=O)N3C)C2(C)C (some centres not stated)', 53.3),
  ('CSCCC(NC(=O)c1ccccc1)C(=O)N/N=C1\S/C(=C/c2ccc(Cl)cc2)C(=O)N1C (configuration not stated)', 117),
  ('COc1ccc(C2=CN3CC=CCC3CC2=O)cc1 (configuration not stated)', 99.7);

growth recorded for this compound, OC(c1ccccc1)(c1ccccc1)c1ccccc1-c1ccccc1 , is 84.2

Record COc1ccc(Cn2cc(C(=O)N=Nc3c(O)[nH]c4c(Cl)cccc34)nn2)cc1 , field growth: 94.4

For reference, reported growth for C=C1C(=O)O[C@H]2[C@H]1CC/C(COC(=O)/C=C\C(=O)NCc1ccc(Cn3c(=O)sn(-c4ccccc4)c3=O)cc1)=C\CC[C@@]1(C)O[C@@H]21 stands at 65.1

Measured growth, O=C1Nc2ccc(F)cc2/C1=N/c1nnc(Sc2ccccc2)s1 : 75.1

Briefly, growth measured for COc1cccc(/C=C/C(=O)c2cc3c(N)c(C(=O)Nc4cccc(Cl)c4C)sc3nc2C)c1 : -47.4

So for CC/C(Cc1ccccc1)=C(\c1ccc(OCCN2CCCCCC2)cc1)c1ccc(OC(=O)NCc2ccccc2)cc1 , the logged growth turned out to be 93.8

Kindly note the recorded growth for N#Cc1c(-c2cccc([N+](=O)[O-])c2)cc(-c2ccc(Nc3nc(Nc4ccc(F)cc4)nc(Nc4ccc(F)cc4)n3)cc2)nc1N , which is 113

Kindly note the recorded growth for N#CCC1=NC(c2cccs2)=Nc2ccccc2S1 , which is 95.6

Input C=CC(C)(O)CC/C=C(\CO)C(=O)OC1C(C)OC(O[C@](C)(C=C)CC/C=C(\CO)C(=O)O[C@H]2C[C@@]3(C(=O)OC4OC(CO)C(O)C(O)C4OC4OC(C)C(OC5OC(CO)C(O)C5O)C(OC5OC(CO)C(O)C(O)C5O)C4O)C(CC2(C)C)C2=CCC4[C@@]5(C)CC[C@H](OC6OC(COC7OC(C)C(O)C(O)C7OC7OCC(O)C(O)C7O)C(O)C(O)C6NC(C)=O)C(C)(C)C5CC[C@@]4(C)[C@]2(C)C[C@H]3O)C(O)C1O (some centres not stated) . Output growth: -70

Looking up Cc1c2cc[nH]c(=O)c2c(C)c2c1[nH]c1ccc(OC(=O)c3ccccc3)cc12 , I found its growth recorded as 29.1

Record summary for C=C(CN1CC=CCC1)[C@@H]1CC[C@]2(CO)CC[C@]3(C)[C@H](CC[C@@H]4[C@@]5(C)CC[C@H](O)C(C)(C)[C@@H]5CC[C@]43C)[C@@H]12 : reported growth = 106

Consider Cn1cc(C(=O)c2nc(-c3c[nH]c4ccc(Br)cc34)no2)c2cc(Br)ccc21 . Its measured growth is 67.4

Sure, the documented growth for COc1ccc2cc(-c3cnc4nonc4n3)ccc2c1 is 29.7

Notebook: O=C(CCCCCCN1CC(=O)N2[C@@H](C3CCCCC3)c3[nH]c4ccccc4c3C[C@H]2C1=O)NO , growth read as 70.8

Quick note, growth for COc1ccc2c(c1)c(-c1nonc1-c1cn(C)c3ccc(OC)cc13)cn2C landed at 31.9

Cited source: PubChem BioAssay (NCI)
